// provenance: patent US20210180089A1

Experiment: Average particle diameter of peptide/DNA nanoparticles by ZetaPALS dynamic light scattering
Type: physicochemical
Conditions: luciferase, non-PEG
Ends that are not written are not given here.
Reported Average Particle Diameter (via ZETA Pals particle size analysis) by item:

(H-Lys-His-Lys-His-His-Lys-His-His-Lys-His-His-Lys-His-His-Lys-His-His-Lys-His-Lys)4-Lys-Lys-Lys-His-His-His-His-Asn-His-His-His-His-OH (chain 1 H-KHKHHKHHKHHKHHKHHKHK; chain 2 KKKHHHHNHHHH-OH; also: four copies of chain 1 branched on core chain 2, attachment points not given here) [Peptide 2070, original peptide HK, 2:3 Lys:His, 4 branches] ... 58.5 nm (luciferase, non-PEG)
(H-Lys-His-Lys-His-His-Lys-His-Lys-His-His-Lys-His-Lys-His-His-Lys-His-Lys-His-Lys)4-Lys-Lys-Lys-His-His-His-His-Asn-His-His-His-His-OH (chain 1 H-KHKHHKHKHHKHKHHKHKHK; chain 2 KKKHHHHNHHHH-OH; also: four copies of chain 1 branched on core chain 2, attachment points not given here) [Peptide 2597, 9:11 Lys:His] ... 51.3 nm (luciferase, non-PEG)
(H-Lys-His-Lys-His-Lys-His-Lys-His-Lys-His-Lys-His-Lys-His-Lys-His-Lys-His-His-Lys)4-Lys-Lys-Lys-His-His-His-His-Asn-His-His-His-His-OH (chain 1 H-KHKHKHKHKHKHKHKHKHHK; chain 2 KKKHHHHNHHHH-OH; also: four copies of chain 1 branched on core chain 2, attachment points not given here) [Peptide 2596, 1:1 Lys:His] ... 64.3 nm (luciferase, non-PEG)

Moving on to another substance below.
(Q) Sample (H-Orn-His-Orn-His-His-Orn-His-His-Orn-His-His-Orn-His-His-Orn-His-His-Orn-His-Orn)4-Lys-Lys-Lys-His-His-His-His-Asn-His-His-His-His-OH [Peptide 2595] — what was its Average Particle Diameter (via ZETA Pals particle size analysis)?
(A) 65.9 nm (luciferase, non-PEG)

* * *

Assay: Average particle diameter of peptide/DNA nanoparticles by ZetaPALS dynamic light scattering
Format: physicochemical
Conditions: luciferase, PEG
Method: The DNA was diluted to 50-100 ug/mL in 5mM HEPES pH 7.4. A peptide solution at a concentration of 100-180 ug/mL in 5 mM HEPES was prepared. A 250 uL volume of the DNA solution was transferred into a 2 mL Eppendorf tube. […] The particle size is measured using a dynamic light scattering (DLS) instrument (such as the Brookhaven ZetaPALS). […] The particle size was measured by DLS. […]
Ends that are not written are not given here.
property: Average Particle Diameter (via ZETA Pals particle size analysis)

(Q) Sample (H-Lys-His-Lys-His-His-Lys-His-His-Lys-His-His-Lys-His-His-Lys-His-His-Lys-His-Lys)4-Lys-Lys-Lys-His-His-His-His-Asn-His-His-His-His-OH (chain 1 H-KHKHHKHHKHHKHHKHHKHK; chain 2 KKKHHHHNHHHH-OH; also: four copies of chain 1 branched on core chain 2, attachment points not given here) [Peptide 2070, original peptide HK, 2:3 Lys:His, 4 branches] — what was its Average Particle Diameter (via ZETA Pals particle size analysis)?
(A) 94.5 nm (luciferase, PEG)
